Recorded pIC50 by entry
System: murine 4T1 mammary tumor cells
MEASUREMENT_DESCRIPTION: Cell viability of 4T1 cells, MTT
Type: cell-based
STUDY_CONDITIONS: Mus musculus; 4T1, MTT, 48 h; read-out: IC50
Protocol: Cell viability tests were performed on murine 4T1 mammary tumor cells characterized as triple negative (HER2-, ER-, PR-). For this experiment, a cell culture medium was prepared. […] The cell viability is measured by three different methods. […] The OD (optical density) is measured at 550 nm. […]
Please keep in mind that pIC50 is minus log10 of the molar concentration; only the number is needed.

Query CC(C)CCC[C@@H](C)[C@H]1CC[C@H]2[C@@H]3C[C@@H](NCCc4c[nH]cn4)[C@@]4(O)C[C@@H](N=[N+]=[N-])CC[C@]4(C)[C@H]3CC[C@]12C on murine 4T1 mammary tumor cells; pIC50 returned: 5.23

Turning now to a further molecule:
The reported murine 4T1 mammary tumor cells pIC50 of CO[C@H]1CC[C@]2(C)[C@H]3CC[C@]4(C)[C@@H]([C@H](C)CCCC(C)C)CC[C@H]4[C@@H]3C[C@@H](NCCc3c[nH]cn3)[C@@]2(O)C1 is 5.50

----------
MEASUREMENT_DESCRIPTION: Pharmacokinetics and bioavailability, oral and I.V., in rats (Example 28)
Assay type: in vivo
STUDY_CONDITIONS: rat, in vivo, po, 50 mg/kg
ATTRIBUTE_MEASURED: Tmax (h)
Entry rule: numbers only, all in h.

Tmax measured on CC(C)CCC[C@@H](C)[C@H]1CC[C@H]2[C@@H]3C[C@@H](NCCc4c[nH]cn4)[C@@]4(O)C[C@@H](F)CC[C@]4(C)[C@H]3CC[C@]12C = 4

----------
MEASUREMENT_DESCRIPTION: Pharmacokinetics and bioavailability, oral and I.V., in rats (Example 28)
Format: in vivo
STUDY_CONDITIONS: rat, plasma, iv, 5 mg/kg, iv, 5 mg/kg, read-out: Vd
ATTRIBUTE_MEASURED: Vd (L/kg)
# value in L/kg; strip the unit string

Item: CC(C)CCC[C@@H](C)[C@H]1CC[C@H]2[C@@H]3C[C@@H](NCCc4c[nH]cn4)[C@@]4(O)C[C@@H](O)CC[C@]4(C)[C@H]3CC[C@]12C [DX101, reference compound] | Vd: 29

----------
System: murine 4T1 mammary tumor cells
MEASUREMENT_DESCRIPTION: Cell viability of 4T1 cells, CellTox Green Cytotoxicity Assay
Assay type: cell-based
STUDY_CONDITIONS: Mus musculus; 4T1, Green Cytotoxicity Assay, 48 h; read-out: IC50
Each record here notes measured pIC50.
Lab note: report pIC50 as minus log10 of the concentration in molar units, number only.

Answered examples (4):
The compound CC(C)CCC[C@@H](C)[C@H]1CC[C@H]2[C@@H]3C[C@@H](NCCc4c[nH]cn4)[C@@]4(O)C[C@@H](O)CC[C@]4(C)[C@H]3CC[C@]12C [DX101, reference compound] showed pIC50 equal to 5.57

Reported pIC50 ( CC(=O)N[C@H]1CC[C@]2(C)[C@H]3CC[C@]4(C)[C@@H]([C@H](C)CCCC(C)C)CC[C@H]4[C@@H]3C[C@@H](NCCc3c[nH]cn3)[C@@]2(O)C1 ) = 4.96

CC(C)CCC[C@@H](C)[C@H]1CC[C@H]2[C@@H]3C[C@@H](NCCc4c[nH]cn4)[C@@]4(O)C[C@@H](F)CC[C@]4(C)[C@H]3CC[C@]12C yielded pIC50 of 5.66

The recorded pIC50 for CC(C)CCC[C@@H](C)[C@H]1CC[C@H]2[C@@H]3C[C@@H](NCCc4c[nH]cn4)[C@@]4(O)C[C@@H](S(C)(=O)=O)CC[C@]4(C)[C@H]3CC[C@]12C is 4.79

***
Sample CO[C@H]1CC[C@]2(C)[C@H]3CC[C@]4(C)[C@@H]([C@H](C)CCCC(C)C)CC[C@H]4[C@@H]3C[C@@H](NCCc3c[nH]cn3)[C@@]2(O)C1 ; pIC50 observed: 5.58

Where do these numbers come from? They come from patent US20230391817A1.
